# System: Plasmodium falciparum
# assay.text: GSK_TCMDC: Inhibition of Plasmodium falciparum Dd2 in whole red blood cells, using parasite LDH activity as an index of growth. Test compounds present at 2uM
# Assay type: functional
Inhibition values by entry
Use % as the unit, but write only the number.

1. C[C@H](N[C@H]1CCCc2c1[nH]c1ccc(Br)cc21)c1ccccc1.Cl | 95
2. Cc1ccc(/C=C/C(=O)NCCCCCN2CCCN(C(=O)Nc3ccc(Cl)c(Cl)c3)CC2)cc1 | 1
3. COc1cccc(OC)c1C(=O)N1CCC2(CC1)C(=O)N(CC(=O)NC1CCCCC1)CN2c1ccccc1 | 91
4. O=C(O)C(F)(F)F.OC1(c2ccccc2)CCN(Cc2cccc(-c3c[nH]c4nc(NC5CCCC5)ncc34)c2)C1 (stereo not given) | 31

GET /values?readout=Inhibition&item= O=C(/C=C/c1ccc(Cl)c(Cl)c1)NC1CCC(CN2CCC(c3cc4ccccc4[nH]3)CC2)CC1 (stereo not given) 0

----------
# Tested on: Plasmodium falciparum
# assay.text: GSK_TCMDC: Inhibition of Plasmodium falciparum 3D7 in whole red blood cells, using parasite LDH activity as an index of growth. Test compounds present at 2uM
# Format: functional
Entries and their measured Inhibition follow.
Give the value in % but do not write % after it.

Example molecules with recorded Inhibition:
1. COc1ccc(-c2ccc(NC(=O)c3cccc(F)c3)cc2)cc1CN1CCCN(C)CC1.O=C(O)C(F)(F)F | 100
2. Cc1[nH]c(C)c(-c2ccc(Oc3cccc(C(F)(F)F)c3)cc2)c(=O)c1Br | 99
3. Cc1nc(-c2nc(NCc3ccncc3)ncc2-c2ccsc2)sc1C | 91
4. CCOc1ccccc1NC(=O)C(Sc1nc(C)cc(C)c1C#N)c1ccccc1 (stereo not given) | 99

We next turn to a different molecule, shown below.
What measured Inhibition goes with CN(C)c1ccc2c(c1)Sc1cc(N(C)C)ccc1N2C(=O)c1cccc(C(=O)O)c1 ? 99

----------
# Test system: Plasmodium falciparum
# assay.text: GSK_TCMDC: Inhibition of Plasmodium falciparum Dd2 in whole red blood cells, using parasite LDH activity as an index of growth. Test compounds present at 2uM
# Format: functional
experimental.readout: Inhibition (%)
Quick reminder: number only, in %, skip the unit.

Would you please look over these solved cases?
1. O=C(NCC1CCN(Cc2ccc(F)cc2)C1)c1cc(-c2cccc(C(F)(F)F)c2)cs1.O=C(O)C(F)(F)F (stereo unspecified) | 18
2. COc1cc(NC(=O)/C=C/c2ccccc2OC(F)(F)F)cc(OCCN2CCN(CCN3CCOCC3)CC2)c1.O=C(O)C(=O)O | 25
3. Cc1cc(=NN=Cc2ccccc2)c2cc(C(F)(F)F)ccc2[nH]1 | 97
4. CC(C)(C)c1nn(-c2ccccc2)c2[nH]c(=O)c(CNCc3ccc4c(c3)OCO4)cc12 | 32
5. CCCCCCCNc1cc(C)nc2ccc(OC)cc12.Cl | 100
6. CCCCN(CCCC)CCCCNc1c2ccccc2nc2ccccc12.Cl | 100
7. O=C(O)C(F)(F)F.OC1(Cc2ccccc2)CCN(Cc2cccc(-c3c[nH]c4nc(NC5CCCC5)ncc34)c2)CC1 | 35
8. O=C(NCc1cccc(F)c1)Nc1ccc(-c2cccc(-c3nc4cc(F)ccc4[nH]3)c2)cc1 | 2

Query (compound): CCOc1cc(C(=O)NCCN2CCCCC2)ccc1-c1nc2cc(Cl)ccc2[nH]1 ; field requested: Inhibition 8

Look at this compound and give its reported Inhibition. Cc1c(CN2CCCCC2)cccc1OCCCNc1nc(NCCc2ccc(O)cc2)nc(N2CCNCC2)n1.O=C(O)C(F)(F)F 23

Fill in: Inhibition of O=C(NCCCCN1CCN(c2cccc3c2OCCO3)CC1)c1ccc(NC(=O)c2cc(Cl)cc(Cl)c2)cc1 is ___ 89

Give the measured Inhibition of Cc1cc(C(=O)Nc2ccc3c(c2)CCN3C2CCN(Cc3ccc(F)cc3Cl)C2)no1 (stereo unspecified) . 96

# Inhibition lookup, item O=C(NCCCCN1CCC(c2c[nH]c3ccc(-c4ccccc4)cc23)CC1)c1ccc(-c2ccccc2)cc1.O=C(O)C(=O)O 40

# credit: ChEMBL document CHEMBL1157539
